Target: 5-HT1A receptor (Homo sapiens)
Sequence (P08908 whole entry): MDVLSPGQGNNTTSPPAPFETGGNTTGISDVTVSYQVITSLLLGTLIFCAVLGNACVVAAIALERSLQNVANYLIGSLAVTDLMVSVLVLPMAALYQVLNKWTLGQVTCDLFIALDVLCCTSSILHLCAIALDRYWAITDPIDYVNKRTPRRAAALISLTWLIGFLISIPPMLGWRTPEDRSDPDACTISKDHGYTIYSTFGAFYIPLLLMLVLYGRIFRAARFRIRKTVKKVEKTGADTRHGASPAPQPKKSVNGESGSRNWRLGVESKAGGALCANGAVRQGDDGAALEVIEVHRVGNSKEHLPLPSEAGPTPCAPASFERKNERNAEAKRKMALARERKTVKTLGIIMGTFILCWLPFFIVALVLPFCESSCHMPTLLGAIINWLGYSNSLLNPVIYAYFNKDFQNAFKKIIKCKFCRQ
Assay: Serotonin receptor binding experiment, 5-HT1A
Parameters: species or system human or rat
Details: [3H]8-OH-DPAT 0.5 nM, 60 min at 27° C.; read-out: Receptor affinity (IC50, nM) 5-HT1A
Readout type: IC50 (nM)
Value expressed in nM; do not type the unit.

[[record]]
structure = "CC(C)c1cc(CCCN2CCN(c3ccccc3F)CC2)n(-c2ccccc2)n1"
assayed_target = "5-HT1A receptor (Homo sapiens)"
unit = "nM"
endpoint_value = 37

[[record]]
structure = "CCCc1cc(CCCN2CCN(c3cccc(C)c3C)CC2)n(-c2ccccc2)n1"
assayed_target = "5-HT1A receptor (Homo sapiens)"
unit = "nM"
endpoint_value = 50

[[record]]
structure = "CCCc1cc(CCCN2CCN(c3ccccc3)CC2)n(-c2ccccc2)n1"
assayed_target = "5-HT1A receptor (Homo sapiens)"
unit = "nM"
endpoint_value = 109

[[record]]
structure = "CCCc1cc(CCCN2CCN(c3ccc(Cl)c(Cl)c3)CC2)n(-c2ccccc2)n1"
assayed_target = "5-HT1A receptor (Homo sapiens)"
unit = "nM"
endpoint_value = 494

[[record]]
structure = "CCCc1cc(CCCN2CCN(c3ccccc3F)CC2)n(-c2ccccc2)n1"
assayed_target = "5-HT1A receptor (Homo sapiens)"
unit = "nM"
endpoint_value = 126


Alright, here's another compound for you.
Qu. Return value of IC50 for input CCCc1cc(CCCN2CCN(c3ccc(C)c(C)c3)CC2)n(-c2ccccc2)n1 , no commentary.
Ans. 413
